# Experimental system: Adenosine receptor A2a (Homo sapiens, UniProt P29274)
# Sequence (P29274 whole entry): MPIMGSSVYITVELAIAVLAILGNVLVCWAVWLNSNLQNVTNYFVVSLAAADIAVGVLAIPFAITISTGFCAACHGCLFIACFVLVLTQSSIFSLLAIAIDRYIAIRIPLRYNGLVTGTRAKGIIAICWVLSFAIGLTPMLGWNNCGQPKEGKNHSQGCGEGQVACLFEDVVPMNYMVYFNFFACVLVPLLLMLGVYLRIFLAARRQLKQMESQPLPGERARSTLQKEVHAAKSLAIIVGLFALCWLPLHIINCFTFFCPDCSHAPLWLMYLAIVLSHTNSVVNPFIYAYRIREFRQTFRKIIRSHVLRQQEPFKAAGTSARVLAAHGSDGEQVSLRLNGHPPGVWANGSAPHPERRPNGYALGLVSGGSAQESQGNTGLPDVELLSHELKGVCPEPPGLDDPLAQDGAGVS
# Test summary: Displacement of [3H]ZM241385 from human A2A receptor expressed in HeLa-A2A cells at 10 uM incubated for 30 mins by scintillation counting method based radioligand competitive binding assay
# Type: cell-based
Entries are grouped by inhibition into these classes: bottom range: < 9%; center range: ≥ 9% and < 20%; top range: ≥ 20%

CN1CCN(c2nc(-c3ccc(Cl)c(Cl)c3)nc3[nH]cnc23)CC1	center range
CN1CCN(c2nc(-c3cccc(Cl)c3)nc3c2ncn3C)CC1	top range
CN1CCN(c2nc(-c3ccccc3O)nc3c2ncn3C)CC1	top range
CN1CCN(c2nc(-c3ccc(Cl)c(C(F)(F)F)c3)nc3[nH]cnc23)CC1	top range
Oc1cccc(-c2nc(N3CCCCC3)c3nc[nH]c3n2)c1	top range

Band of CN1CCN(c2nc(-c3cccc(O)c3)nc3[nH]cnc23)CC1 ?
bottom range

For this compound, which bin applies? Cn1cnc2c(N3CCCCC3)nc(-c3cccc(Cl)c3)nc21
center range

Exam item: assign Cn1cnc2c(N3CCCCC3)nc(-c3cc(Cl)ccc3Cl)nc21 to the correct category.
bottom range

Which bin, given its inhibition, does Clc1ccc(-c2nc(N3CCCCC3)c3nc[nH]c3n2)cc1 occupy?
top range

Hey, which category is CN1CCN(c2nc(-c3ccc(Cl)c(Cl)c3)nc3c2ncn3C)CC1 in, do you know?
top range

---

# Experimental system: Adenosine receptor A3 (Homo sapiens) (UniProt P0DMS8)
# Sequence (P0DMS8 whole entry): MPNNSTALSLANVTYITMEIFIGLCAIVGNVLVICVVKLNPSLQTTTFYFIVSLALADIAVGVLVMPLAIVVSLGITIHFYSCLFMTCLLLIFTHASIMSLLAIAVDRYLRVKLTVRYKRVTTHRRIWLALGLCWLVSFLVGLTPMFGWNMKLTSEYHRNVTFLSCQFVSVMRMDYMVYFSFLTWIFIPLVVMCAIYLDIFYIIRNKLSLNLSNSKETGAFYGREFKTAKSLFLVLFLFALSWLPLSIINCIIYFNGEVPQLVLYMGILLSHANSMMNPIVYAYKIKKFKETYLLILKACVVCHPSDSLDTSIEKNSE
# Test summary: Displacement of [3H]NECA from human A3 receptor expressed in HeLa-A3 cells at 10 uM incubated for 180 mins by scintillation counting method based radioligand competitive binding assay
# Assay type: cell-based
In this section we review reported inhibition values for a set of compounds.
Unit % implied. Number only.

Sample answers from the record:
Cn1cnc2c(N3CCCCC3)nc(-c3cc(Cl)ccc3Cl)nc21	5.4
Cn1cnc2c(N3CCCCC3)nc(-c3cccc(O)c3O)nc21	33.7
CN1CCN(c2nc(-c3ccc(O)cc3)nc3[nH]cnc23)CC1	48
CN1CCN(c2nc(-c3cccc(O)c3)nc3c2ncn3C)CC1	63.8
CN1CCN(c2ncnc3[nH]cnc23)CC1	26.9

Please find the next compound below.
// Input: Cn1cnc2c(N3CCCCC3)nc(-c3ccccc3O)nc21 . Output its inhibition only.
20

---

# Experimental system: Adenosine receptor A2b (Homo sapiens) (UniProt P29275)
# Sequence (P29275 whole entry): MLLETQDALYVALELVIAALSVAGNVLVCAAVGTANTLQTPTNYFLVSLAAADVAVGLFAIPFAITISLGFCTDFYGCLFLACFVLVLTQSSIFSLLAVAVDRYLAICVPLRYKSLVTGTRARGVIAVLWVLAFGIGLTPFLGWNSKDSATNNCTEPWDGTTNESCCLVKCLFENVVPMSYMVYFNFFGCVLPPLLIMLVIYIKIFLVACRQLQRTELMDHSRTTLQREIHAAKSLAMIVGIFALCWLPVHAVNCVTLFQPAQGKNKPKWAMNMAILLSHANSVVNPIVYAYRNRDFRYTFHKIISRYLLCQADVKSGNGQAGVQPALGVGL
# Test summary: Displacement of [3H]DPCPX from human A2B receptor expressed in HEK-293-A2B cells at 10 uM incubated for 30 mins by scintillation counting method based radioligand competitive binding assay
# Type: cell-based
Measure: inhibition

Example cases with answers are listed next.
Clc1ccc(-c2nc(N3CCCCC3)c3nc[nH]c3n2)cc1	1.4%
Clc1ccc(-c2nc(N3CCCCC3)c3nc[nH]c3n2)cc1Cl	0.7%
Oc1cccc(-c2nc(N3CCCCC3)c3nc[nH]c3n2)c1	> 80%
CN1CCN(c2nc(-c3cccc(O)c3)nc3c2ncn3C)CC1	47.8%
CN1CCN(c2nc(-c3ccc(Cl)cc3)nc3[nH]cnc23)CC1	6.2%
Cn1cnc2c(N3CCCCC3)nc(-c3cc(Cl)ccc3Cl)nc21	31%
Clc1ccc(Cl)c(-c2nc(N3CCCCC3)c3nc[nH]c3n2)c1	12.1%
CN1CCN(c2nc(-c3cccc(Cl)c3)nc3[nH]cnc23)CC1	29.9%
CN1CCN(c2nc(-c3cc(Cl)ccc3Cl)nc3[nH]cnc23)CC1	13%
Cn1cnc2c(N3CCCCC3)nc(-c3ccccc3O)nc21	30.2%

Now for the molecule whose inhibition we want.
Return the recorded inhibition value; entry: CN1CCN(c2ncnc3[nH]cnc23)CC1
14%
